Assay: reporter signal increase, D54 LucT cells – cell-based, luminescence, cherry pick, counter-screen for N-linked glycosylation inhibitor project, dose response (AID 624404)
Conditions: D54 LucT luciferase reporter counterscreen, 24 h; series mostly up to 19.5 µM
The campaign covered roughly 1,800 compounds. About 710 (39%) were called active. About 28% were inconclusive and are not listed. A selection follows. Potency and affinity values are given separately.
Property measured: outcome

Below: 8 compounds and their reported outcome.
compound=COc1ccc(OC)c(N(CC(=O)Nc2cccnc2)S(=O)(=O)c2ccc(C)cc2)c1 test_result=inactive
compound=Nc1nonc1-c1nc2ccccc2n1CC(=O)N/N=C\c1ccc(-c2ccc(Cl)cc2)o1 test_result=inactive
compound="COc1ccccc1C1CC(=O)Nc2cc3c(cc21)OCCO3 (stereo not given)" test_result=inactive
compound=CCN(CC)CCNc1ccc(CO)c2oc3cc(Cl)ccc3c(=O)c12 test_result=inactive
compound="C=CCN(CC=C)C(=O)CN1C(=O)NC(C)(c2ccc3cc(OC)ccc3c2)C1=O (stereo not given)" test_result=inactive
compound=CCOc1ccccc1NC(=O)CN(c1ccc(OC)cc1)S(=O)(=O)c1c(C)noc1C test_result=inactive
compound=CCn1c(=O)c2cc(C(=O)NCCN(C)C)sc2c2ccccc21 test_result=inactive
compound=Cc1nc2c3cc(F)ccc3n(Cc3ccc(F)cc3)c2s1 test_result=inactive

CCN(CC)CCNc1ccc(CO)c2oc3ccccc3c(=O)c12 yielded outcome of inactive

CNc1ccc(Br)cc(C(=O)/C=C/c2cccc(OC)c2OC)c1=O yielded outcome of inactive

###

Assay: reporter signal increase, D54 LucT cells – cell-based, luminescence, cherry pick, counter-screen for N-linked glycosylation inhibitor project, dose response (AID 624404)
Conditions: D54 LucT luciferase reporter counterscreen, 24 h; series mostly up to 19.5 µM
The whole screen tested about 1,800 compounds, of which about 710 (39%) were called active. Inconclusive results (about 28%) are left out. Only a sample is shown. Results with a measured potency or affinity are listed apart.
Property measured: outcome

Below: 4 molecules and their reported outcome.
molecule="OCC1OC(n2cnc3c(=S)nc[nH]c32)CC1O (configuration not stated)" test_result=inactive
molecule=CCOc1ccc2[nH]c(=O)c(CN(Cc3ccc(F)cc3)C(=O)c3ccco3)cc2c1 test_result=inactive
molecule=CN(C)CCNc1ccc2nnn3c4ccc(O)cc4c(=O)c1c23 test_result=inactive
molecule=COc1cc2nc(NC(=O)c3ccccc3)sc(=O)c2cc1OC test_result=inactive

CC(=O)Nc1sc(C)c(C)c1C(=O)OCC(=O)Nc1cccc(C)c1 yielded outcome of inactive

CCOc1cc(S(=O)(=O)NCc2ccc(OC)cc2)c(OCC)cc1-n1cnnn1 yielded outcome of inactive

CN(C)CCCN1C(=O)c2cccc3c(Br)ccc(c23)C1=O yielded outcome of inactive

O=C(N/N=C/c1ccc2c(c1)OCO2)c1sc2cc(Cl)ccc2c1Cl yielded outcome of inactive

COc1ccc2sc3cccc(NCCN(C)C)c3c(=O)c2c1 yielded outcome of inactive

CC(=O)Cn1ncc(Br)c(Br)c1=O yielded outcome of inactive

CC[C@H](C)[C@H](NC(=O)c1ccc(Cl)cc1)C(=O)OCC(=O)c1ccc2c(c1)NC(=O)CO2 yielded outcome of inactive

CCN(CC(=O)Nc1ccccc1OC)CC(=O)Nc1ccccc1-c1ccccc1 yielded outcome of inactive

CCOC(=O)C(=Cc1ccc(-c2ccsc2C(=O)OC)o1)C(=O)OCC yielded outcome of inactive

CCOC(=O)Cc1csc(/N=C/c2c(O)n(-c3ccc(C)c(C)c3)c(=O)c3ccccc23)n1 yielded outcome of inactive

CN(C)c1ccc(-c2ccnc3c2CC(C)(C(=O)NCc2ccccc2)O3)cc1 (configuration not stated) yielded outcome of inactive

Cc1cc(Br)cc2c(C(=O)Nc3c(C)n(C)n(-c4ccccc4)c3=O)cc(-c3cccs3)nc12 yielded outcome of inactive

COc1ccc2c(c1)c1ccc3c(c1n2C)C(=O)C=CC3=O yielded outcome of inactive

Cn1nc(C(F)(F)F)c(/C=N/OC(=O)c2ccccc2Cl)c1SCc1ccccc1Cl yielded outcome of inactive

Values from PubChem BioAssay AID624404
